# Test system: P. falciparum 3D7
# TEST_SUMMARY: DAPI stain fluorescent high content imaging assay, P. falciparum 3D7 (confirmatory screen, Avery)
# CONDITION_SET: Plasmodium falciparum, 3D7, read-out: percent_inh @ 5 uM
METRIC: inhibition of growth at 5 µM (%)
The response must be a number in % with no trailing unit.

Consider the reported inhibition of growth at 5 µM for these molecules:
> print(dat)
                                   molecule      system.tested                        metric  quantity.unit  measured.value
1  COc1ccc(N2CCN(C(CNC(=O)C3CCCCC3)c3ccc4c(c3)OCO4)CC2)cc1 (centres unmarked)  P. falciparum 3D7  inhibition of growth at 5 µM              %              97
2  CCOc1c(Cl)cc(CNC(C)C(O)c2ccccc2)cc1OC (centres unmarked)  P. falciparum 3D7  inhibition of growth at 5 µM              %              98
3  COc1ccc(C(=O)Nc2ccc(Cl)cc2C(=O)Nc2ccncc2)cc1  P. falciparum 3D7  inhibition of growth at 5 µM              %              93

[ask] Request the reported inhibition of growth at 5 µM associated with `Cc1ccccc1OCCSc1nc2ccc(NC(=O)c3cccs3)cc2s1`
[reply] 96

[ask] Given the molecule `Oc1ccccc1CNCC12CC3CC(CC(C3)C1)C2` , what is its reported inhibition of growth at 5 µM?
[reply] 96

---

The entries below are paired with their reported EC50.
# System: P. falciparum 3D7
# TEST_SUMMARY: DAPI stain fluorescent high content imaging assay, P. falciparum 3D7 (confirmatory screen, Avery)
# CONDITION_SET: Plasmodium falciparum, 3D7, read-out: EC50_nM
Unit nM implied. Number only.

> print(dat)
                                   molecule      system.tested  measured.value
1  COc1cc(CNCCc2ccc(Cl)cc2)cc(OC)c1O [MMV128432]  P. falciparum 3D7            1790
2  COc1ccc(C2c3ccc4ccccc4c3Oc3ncn(CCCN(C)C)c(=N)c32)cc1 (stereo not drawn) [MMV667491]  P. falciparum 3D7            1230
3  CCOc1cc2c(cc1OCC)C(c1cc(OC)c(O)cc1Cl)NCC2 (stereo not drawn) [MMV008956]  P. falciparum 3D7             370
4  CCC(c1ccccc1)c1nn2c(-c3cccs3)nnc2s1 (stereo not drawn) [MMV665876]  P. falciparum 3D7             259
5  Cc1ccc(-c2cc(C(=O)Nc3ccc(S(=O)(=O)N4CCCCC4)cc3)[nH]n2)c(O)c1 [MMV665906]  P. falciparum 3D7             535
6  FC(F)(F)c1cccc(Nc2nc3ccccc3nc2Nc2cccc(C(F)(F)F)c2)c1 [MMV665794]  P. falciparum 3D7             313
7  CCOc1cc(CNC(C)C(O)c2ccccc2)cc(Cl)c1OCC (stereo not drawn) [MMV396633]  P. falciparum 3D7            1240
8  Cc1cccc(Nc2nc(N)c3ccccc3n2)c1 [MMV019110]  P. falciparum 3D7             400

[ask] EC50 for OC(CNCC1CCCO1)Cn1c2ccc(Cl)cc2c2cc(Cl)ccc21 (stereo not drawn) [MMV396736] ?
[reply] 1060
